Cited source for all entries: patent US6057311A

- assayed_system: CCKB receptor (Mus musculus)
- Construct: The cortex was dissected, weighed and homogenised in 40 ml ice-cold buffer; tissue Charles River (animals); host or cells: cerebral cortex of male CD1 mice, membranes
- Sequence (P56481 whole entry): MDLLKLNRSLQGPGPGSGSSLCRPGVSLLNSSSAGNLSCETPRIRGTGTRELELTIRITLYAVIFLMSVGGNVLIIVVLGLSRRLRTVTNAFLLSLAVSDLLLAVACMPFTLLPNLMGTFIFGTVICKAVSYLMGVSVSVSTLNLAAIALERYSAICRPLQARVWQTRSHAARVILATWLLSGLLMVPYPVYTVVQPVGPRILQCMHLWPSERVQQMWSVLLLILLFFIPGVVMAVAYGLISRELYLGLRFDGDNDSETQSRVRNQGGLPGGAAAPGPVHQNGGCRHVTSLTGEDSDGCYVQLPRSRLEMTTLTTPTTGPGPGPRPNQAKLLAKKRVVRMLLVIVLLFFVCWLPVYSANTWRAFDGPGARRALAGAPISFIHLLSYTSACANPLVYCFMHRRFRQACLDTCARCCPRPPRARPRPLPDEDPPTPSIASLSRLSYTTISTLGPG
- measurement_notes: radioligand binding assay at the CCKB receptor in mouse cortical membranes ([125I]-CCK8S)
- recorded_conditions: [125I]-CCK8S 200 pM, 150 min at 21±3° C., pH 7.2
parameter: pKi (Mouse cortex)
Write no unit; give the number alone.

-- ask Give the reported pKi (Mouse cortex) for CC(=O)N1[C@H](CC23CC4CC(CC(C4)C2)C3)C(=O)N(Cc2ccccc2)c2ccccc2C(=O)C[C@H]1C(=O)N[C@@H](C)C(=O)O (system: CCKB receptor (Mus musculus)).
-- reply 6.9

-- ask Give the reported pKi (Mouse cortex) for CC(=O)N1[C@H](CC2CCCCC2)C(=O)N(Cc2ccccc2)c2ccccc2C(=O)C[C@H]1C(=O)NCC(=O)O (system: CCKB receptor (Mus musculus)).
-- reply 5.4

-- ask Give the reported pKi (Mouse cortex) for CC(=O)N1[C@H](CC2CCCCCC2)C(=O)N(Cc2ccccc2)c2ccccc2C(=O)C[C@H]1C(=O)NCC(=O)O (system: CCKB receptor (Mus musculus)).
-- reply 5.6

-- ask Give the reported pKi (Mouse cortex) for CC(=O)N1[C@H](CCC(C)C)C(=O)N(Cc2ccccc2)c2ccccc2C(=O)C[C@H]1C(=O)NCC(=O)O (system: CCKB receptor (Mus musculus)).
-- reply 5.3

-- ask Give the reported pKi (Mouse cortex) for COc1ccc(CN2C(=O)[C@@H](CC34CC5CC(CC(C5)C3)C4)N(C(C)=O)[C@H](C(=O)NCC(=O)O)CC(=O)c3ccccc32)cc1 (system: CCKB receptor (Mus musculus)).
-- reply 5.9

-- ask Give the reported pKi (Mouse cortex) for COC(=O)[C@@H]1CC(=O)c2ccccc2N(Cc2ccccc2)C(=O)[C@@H](CC23CC4CC(CC(C4)C2)C3)N1C(C)=O (system: CCKB receptor (Mus musculus)).
-- reply 5.5

-- ask Give the reported pKi (Mouse cortex) for CC1CCN(C(=O)Nc2cccc(C(=O)O)c2)CC(=O)N(Cc2ccccc2)c2ccccc21 (stereo not shown) (system: CCKB receptor (Mus musculus)).
-- reply 4.8

-- ask Give the reported pKi (Mouse cortex) for CC(=O)N1[C@H](CC23CC4CC(CC(C4)C2)C3)C(=O)N(Cc2ccccc2F)c2ccccc2C(=O)C[C@H]1C(=O)NCc1nn[nH]n1 (system: CCKB receptor (Mus musculus)).
-- reply 6.8

-- ask Give the reported pKi (Mouse cortex) for CC(=O)N1[C@H](CC23CC4CC(CC(C4)C2)C3)C(=O)N(Cc2ccccc2)c2ccccc2C(=O)C[C@H]1C(=O)N(C)CC(=O)O (single isomer, unassigned; isomer 1) [Example 29] (system: CCKB receptor (Mus musculus)).
-- reply 5.5

-- ask Give the reported pKi (Mouse cortex) for CC(=O)N1[C@H](CC23CC4CC(CC(C4)C2)C3)C(=O)N(Cc2ccccc2)c2ccccc2C(=O)C[C@H]1C(=O)N1CCC[C@H]1C(=O)O (single isomer, unassigned; isomer 2) [Example 28] (system: CCKB receptor (Mus musculus)).
-- reply 5.4
